target: UBE2B; experiment: reporter assay of Huesken 2005; conditions: siRNA
Oligonucleotides are written 5' to 3', each unit as a sugar letter and its base; * is a phosphorothioate linkage, no mark a phosphodiester; rarer units and linkages stand in square brackets, end groups in braces. Plain capitals give the bases only. d = 2'-deoxy (DNA); r = 2'-OH (RNA)
Think of 70% as a floor: if normalised inhibition (eCFP-eYFP dual reporter) stands on it or above, it is satisfied; beneath it, not satisfied.

Recorded results for 2 substances are shown here.
| Substance | System Name | Class Name |
| --- | --- | --- |
| sense rUrUrUrCrArArGrCrGrGrUrUrArCrArArGrArGdTdT / antisense rCrUrCrUrUrGrUrArArCrCrGrCrUrUrGrArArAdTdC | UBE2B | not satisfied |
| sense rArArUrUrCrArGrUrCrUrCrUrGrCrUrGrGrArUdTdT / antisense rArUrCrCrArGrCrArGrArGrArCrUrGrArArUrUdGdA | UBE2B | not satisfied |

Can sense rArArUrArGrCrCrArGrGrCrArGrCrArCrArGrCdTdT / antisense rGrCrUrGrUrGrCrUrGrCrCrUrGrGrCrUrArUrUdGdG be said to have normalised inhibition (eCFP-eYFP dual reporter) at or above 70%? not satisfied

Can sense rGrCrArCrCrArUrCrUrGrArArArArCrArArCrAdTdT / antisense rUrGrUrUrGrUrUrUrUrCrArGrArUrGrGrUrGrCdGdC be said to have normalised inhibition (eCFP-eYFP dual reporter) at or above 70%? satisfied

Can sense rArGrUrUrArUrArUrUrUrGrGrArCrCrArGrArAdTdT / antisense rUrUrCrUrGrGrUrCrCrArArArUrArUrArArCrUdGdC be said to have normalised inhibition (eCFP-eYFP dual reporter) at or above 70%? satisfied

Can sense rCrUrGrArArGrArArUrArUrCrCrArArArUrArAdTdT / antisense rUrUrArUrUrUrGrGrArUrArUrUrCrUrUrCrArGdAdA be said to have normalised inhibition (eCFP-eYFP dual reporter) at or above 70%? satisfied

----------
target: UBE2W; assay: reporter assay of Huesken 2005; conditions: siRNA
Oligonucleotides are written 5' to 3', each unit as a sugar letter and its base; * is a phosphorothioate linkage, no mark a phosphodiester; rarer units and linkages stand in square brackets, end groups in braces. Plain capitals give the bases only. d = 2'-deoxy (DNA); r = 2'-OH (RNA)
Value Type: normalised inhibition (eCFP-eYFP dual reporter) (%)
Numbers only, in %.

Known results for substances:
| Substance | U | Recorded Result |
| --- | --- | --- |
| sense rUrArUrCrUrGrUrUrUrArUrCrCrArUrUrCrUrAdTdT / antisense rUrArGrArArUrGrGrArUrArArArCrArGrArUrAdTdG | % | 85.9 |
| sense rUrCrCrUrUrUrUrGrArCrUrCrUrCrCrUrCrArGdTdT / antisense rCrUrGrArGrGrArGrArGrUrCrArArArArGrGrAdTdA | % | 78.4 |
| sense rUrCrArUrCrCrUrCrArUrGrUrUrUrArUrArGrCdTdT / antisense rGrCrUrArUrArArArCrArUrGrArGrGrArUrGrAdAdC | % | 78.8 |
| sense rArUrCrArGrUrUrUrGrUrCrUrUrArGrCrArUrUdTdT / antisense rArArUrGrCrUrArArGrArCrArArArCrUrGrArUdTdG | % | 107 |
| sense rArArCrUrUrCrUrArUrUrUrArArArUrUrUrArGdTdT / antisense rCrUrArArArUrUrUrArArArUrArGrArArGrUrUdGdA | % | 96.1 |
| sense rCrArCrArGrUrGrGrArUrUrGrUrArGrArCrArUdTdT / antisense rArUrGrUrCrUrArCrArArUrCrCrArCrUrGrUrGdTdA | % | 115 |

Dear colleague, could you please provide normalised inhibition (eCFP-eYFP dual reporter) for the substances listed below?
1. sense rUrGrGrArArUrGrArCrCrUrUrArArArUrGrArGdTdT / antisense rCrUrCrArUrUrUrArArGrGrUrCrArUrUrCrCrAdGdG
2. sense rArArUrUrUrCrArArCrUrUrCrUrArUrUrUrArAdTdT / antisense rUrUrArArArUrArGrArArGrUrUrGrArArArUrUdTdT

1. 96.4
2. 97.5

Dear colleague, could you please provide normalised inhibition (eCFP-eYFP dual reporter) for the substances listed below?
1. sense rArGrArArGrArCrUrGrGrUrCrCrCrCrArGrCrGdTdT / antisense rCrGrCrUrGrGrGrGrArCrCrArGrUrCrUrUrCrUdGdT
2. sense rGrUrGrCrGrArArCrArUrGrUrArArCrArArGrAdTdT / antisense rUrCrUrUrGrUrUrArCrArUrGrUrUrCrGrCrArCdAdT
3. sense rCrArGrUrCrCrArArUrCrArGrUrUrUrGrUrCrUdTdT / antisense rArGrArCrArArArCrUrGrArUrUrGrGrArCrUrGdAdG
4. sense rArArGrArGrArCrGrArCrCrArCrCrGrGrArUrAdTdT / antisense rUrArUrCrCrGrGrUrGrGrUrCrGrUrCrUrCrUrUdTdT

1. 88.4
2. 125
3. 122
4. 82.7

----------
target: Mmp7 (rat); assay: reporter assay of Huesken 2005; conditions: siRNA
Oligonucleotides are given in HELM: sugar(base)linkage, 5' to 3'; d 2'-deoxyribose, r ribose, m 2'-O-methylribose, p phosphate. ss, as = sense and antisense strand
Assignment: determine reported normalised inhibition (eCFP-eYFP dual reporter) for the given substances.
Answer as a quantity: numeral, then unit.

Known results for substances:
Substance	Recorded Result
RNA1{r(G)p.r(C)p.r(A)p.r(G)p.r(U)p.r(G)p.r(G)p.r(A)p.r(C)p.r(A)p.r(A)p.r(A)p.r(C)p.r(U)p.r(G)p.r(A)p.r(G)p.r(G)p.r(G)p.d(T)p.d(T)}|RNA2{r(C)p.r(C)p.r(C)p.r(U)p.r(C)p.r(A)p.r(G)p.r(U)p.r(U)p.r(U)p.r(G)p.r(U)p.r(C)p.r(C)p.r(A)p.r(C)p.r(U)p.r(G)p.r(C)p.d(A)p.d(C)}$$$RNA1{StrandType:ss}|RNA2{StrandType:as}$	32.3%
RNA1{r(A)p.r(G)p.r(A)p.r(C)p.r(A)p.r(U)p.r(C)p.r(A)p.r(U)p.r(A)p.r(A)p.r(U)p.r(U)p.r(G)p.r(G)p.r(C)p.r(U)p.r(U)p.r(C)p.d(T)p.d(T)}|RNA2{r(G)p.r(A)p.r(A)p.r(G)p.r(C)p.r(C)p.r(A)p.r(A)p.r(U)p.r(U)p.r(A)p.r(U)p.r(G)p.r(A)p.r(U)p.r(G)p.r(U)p.r(C)p.r(U)p.d(G)p.d(C)}$$$RNA1{StrandType:ss}|RNA2{StrandType:as}$	99.4%

Report normalised inhibition (eCFP-eYFP dual reporter) under test system Mmp7 (rat) for RNA1{r(G)p.r(C)p.r(A)p.r(A)p.r(G)p.r(G)p.r(G)p.r(G)p.r(A)p.r(G)p.r(A)p.r(U)p.r(C)p.r(A)p.r(C)p.r(G)p.r(G)p.r(A)p.r(G)p.d(T)p.d(T)}|RNA2{r(C)p.r(U)p.r(C)p.r(C)p.r(G)p.r(U)p.r(G)p.r(A)p.r(U)p.r(C)p.r(U)p.r(C)p.r(C)p.r(C)p.r(C)p.r(U)p.r(U)p.r(G)p.r(C)p.d(G)p.d(A)}$$$RNA1{StrandType:ss}|RNA2{StrandType:as}$ . 90.5%

----------
biological target: SOST; experiment: reporter assay of Huesken 2005; details: siRNA
Oligonucleotides are given in HELM: sugar(base)linkage, 5' to 3'; d 2'-deoxyribose, r ribose, m 2'-O-methylribose, p phosphate. ss, as = sense and antisense strand
Think of 60% as a floor: if normalised inhibition (eCFP-eYFP dual reporter) stands on it or above, it is Met; beneath it, Not met.

Substance	Class Name
RNA1{r(C)p.r(G)p.r(C)p.r(C)p.r(U)p.r(G)p.r(C)p.r(U)p.r(G)p.r(C)p.r(C)p.r(C)p.r(A)p.r(A)p.r(C)p.r(G)p.r(C)p.r(C)p.r(A)p.d(T)p.d(T)}|RNA2{r(U)p.r(G)p.r(G)p.r(C)p.r(G)p.r(U)p.r(U)p.r(G)p.r(G)p.r(G)p.r(C)p.r(A)p.r(G)p.r(C)p.r(A)p.r(G)p.r(G)p.r(C)p.r(G)p.d(C)p.d(G)}$$$RNA1{StrandType:ss}|RNA2{StrandType:as}$	Met
RNA1{r(A)p.r(C)p.r(G)p.r(U)p.r(G)p.r(U)p.r(C)p.r(C)p.r(G)p.r(A)p.r(G)p.r(U)p.r(A)p.r(C)p.r(A)p.r(G)p.r(C)p.r(U)p.r(G)p.d(T)p.d(T)}|RNA2{r(C)p.r(A)p.r(G)p.r(C)p.r(U)p.r(G)p.r(U)p.r(A)p.r(C)p.r(U)p.r(C)p.r(G)p.r(G)p.r(A)p.r(C)p.r(A)p.r(C)p.r(G)p.r(U)p.d(C)p.d(T)}$$$RNA1{StrandType:ss}|RNA2{StrandType:as}$	Met

Can RNA1{r(C)p.r(G)p.r(G)p.r(U)p.r(C)p.r(A)p.r(C)p.r(C)p.r(G)p.r(A)p.r(G)p.r(C)p.r(U)p.r(G)p.r(G)p.r(U)p.r(G)p.r(U)p.r(G)p.d(T)p.d(T)}|RNA2{r(C)p.r(A)p.r(C)p.r(A)p.r(C)p.r(C)p.r(A)p.r(G)p.r(C)p.r(U)p.r(C)p.r(G)p.r(G)p.r(U)p.r(G)p.r(A)p.r(C)p.r(C)p.r(G)p.d(G)p.d(C)}$$$RNA1{StrandType:ss}|RNA2{StrandType:as}$ be said to have normalised inhibition (eCFP-eYFP dual reporter) at or above 60%? Not met

Can RNA1{r(U)p.r(C)p.r(G)p.r(G)p.r(C)p.r(C)p.r(G)p.r(C)p.r(G)p.r(G)p.r(C)p.r(A)p.r(A)p.r(G)p.r(U)p.r(G)p.r(G)p.r(U)p.r(G)p.d(T)p.d(T)}|RNA2{r(C)p.r(A)p.r(C)p.r(C)p.r(A)p.r(C)p.r(U)p.r(U)p.r(G)p.r(C)p.r(C)p.r(G)p.r(C)p.r(G)p.r(G)p.r(C)p.r(C)p.r(G)p.r(A)p.d(T)p.d(G)}$$$RNA1{StrandType:ss}|RNA2{StrandType:as}$ be said to have normalised inhibition (eCFP-eYFP dual reporter) at or above 60%? Met

Can RNA1{r(G)p.r(G)p.r(A)p.r(C)p.r(C)p.r(G)p.r(A)p.r(G)p.r(G)p.r(C)p.r(C)p.r(G)p.r(C)p.r(U)p.r(C)p.r(G)p.r(G)p.r(C)p.r(C)p.d(T)p.d(T)}|RNA2{r(G)p.r(G)p.r(C)p.r(C)p.r(G)p.r(A)p.r(G)p.r(C)p.r(G)p.r(G)p.r(C)p.r(C)p.r(U)p.r(C)p.r(G)p.r(G)p.r(U)p.r(C)p.r(C)p.d(C)p.d(G)}$$$RNA1{StrandType:ss}|RNA2{StrandType:as}$ be said to have normalised inhibition (eCFP-eYFP dual reporter) at or above 60%? Not met

Can RNA1{r(C)p.r(C)p.r(G)p.r(C)p.r(A)p.r(G)p.r(C)p.r(G)p.r(C)p.r(C)p.r(A)p.r(A)p.r(G)p.r(C)p.r(C)p.r(G)p.r(G)p.r(U)p.r(C)p.d(T)p.d(T)}|RNA2{r(G)p.r(A)p.r(C)p.r(C)p.r(G)p.r(G)p.r(C)p.r(U)p.r(U)p.r(G)p.r(G)p.r(C)p.r(G)p.r(C)p.r(U)p.r(G)p.r(C)p.r(G)p.r(G)p.d(C)p.d(A)}$$$RNA1{StrandType:ss}|RNA2{StrandType:as}$ be said to have normalised inhibition (eCFP-eYFP dual reporter) at or above 60%? Not met

Can RNA1{r(A)p.r(G)p.r(U)p.r(G)p.r(G)p.r(U)p.r(G)p.r(G)p.r(C)p.r(G)p.r(A)p.r(C)p.r(C)p.r(U)p.r(A)p.r(G)p.r(U)p.r(G)p.r(G)p.d(T)p.d(T)}|RNA2{r(C)p.r(C)p.r(A)p.r(C)p.r(U)p.r(A)p.r(G)p.r(G)p.r(U)p.r(C)p.r(G)p.r(C)p.r(C)p.r(A)p.r(C)p.r(C)p.r(A)p.r(C)p.r(U)p.d(T)p.d(G)}$$$RNA1{StrandType:ss}|RNA2{StrandType:as}$ be said to have normalised inhibition (eCFP-eYFP dual reporter) at or above 60%? Met

Can RNA1{r(G)p.r(U)p.r(G)p.r(C)p.r(C)p.r(G)p.r(C)p.r(A)p.r(G)p.r(C)p.r(G)p.r(C)p.r(C)p.r(A)p.r(A)p.r(G)p.r(C)p.r(C)p.r(G)p.d(T)p.d(T)}|RNA2{r(C)p.r(G)p.r(G)p.r(C)p.r(U)p.r(U)p.r(G)p.r(G)p.r(C)p.r(G)p.r(C)p.r(U)p.r(G)p.r(C)p.r(G)p.r(G)p.r(C)p.r(A)p.r(C)p.d(G)p.d(G)}$$$RNA1{StrandType:ss}|RNA2{StrandType:as}$ be said to have normalised inhibition (eCFP-eYFP dual reporter) at or above 60%? Not met

Can RNA1{r(G)p.r(A)p.r(C)p.r(G)p.r(U)p.r(G)p.r(U)p.r(C)p.r(C)p.r(G)p.r(A)p.r(G)p.r(U)p.r(A)p.r(C)p.r(A)p.r(G)p.r(C)p.r(U)p.d(T)p.d(T)}|RNA2{r(A)p.r(G)p.r(C)p.r(U)p.r(G)p.r(U)p.r(A)p.r(C)p.r(U)p.r(C)p.r(G)p.r(G)p.r(A)p.r(C)p.r(A)p.r(C)p.r(G)p.r(U)p.r(C)p.d(T)p.d(T)}$$$RNA1{StrandType:ss}|RNA2{StrandType:as}$ be said to have normalised inhibition (eCFP-eYFP dual reporter) at or above 60%? Met

Can RNA1{r(G)p.r(C)p.r(C)p.r(G)p.r(C)p.r(G)p.r(C)p.r(G)p.r(C)p.r(G)p.r(C)p.r(G)p.r(C)p.r(A)p.r(A)p.r(G)p.r(G)p.r(U)p.r(G)p.d(T)p.d(T)}|RNA2{r(C)p.r(A)p.r(C)p.r(C)p.r(U)p.r(U)p.r(G)p.r(C)p.r(G)p.r(C)p.r(G)p.r(C)p.r(G)p.r(C)p.r(G)p.r(C)p.r(G)p.r(G)p.r(C)p.d(G)p.d(C)}$$$RNA1{StrandType:ss}|RNA2{StrandType:as}$ be said to have normalised inhibition (eCFP-eYFP dual reporter) at or above 60%? Not met

From: the OligoGym collection
